Values of Kd for Son of Sevenless (SOS) (Homo sapiens), collected from a number of published sources:

Would you please look over these solved cases?
Compound | Kd
C[C@@H](Nc1nc(Cl)nc2c1CN(C(=O)C1(N)COC1)C2)c1cccc(C(F)F)c1F | < 400 nM
Cc1c([C@@H](C)NC(=O)c2cn(C3CCOCC3)c(=O)cc2N[C@H]2[C@@H]3CN(C)C[C@@H]32)cccc1C(F)(F)F | 11 nM
C[C@@H](Nc1nc(Cl)nc2c1CN(S(=O)(=O)N1CCOCC1)C2)c1cccc(C(F)(F)CO)c1 | < 400 nM
CNCc1ccccc1-c1cccc(C(C)Nc2nc(Cl)nc3c2CN(C(=O)N2CCOCC2)C3)c1 (stereo not shown) | < 400 nM
C[C@@H](NC(=O)c1cn([C@@H]2CCC2(F)F)c(=O)cc1N[C@H]1[C@@H]2CN(C)C[C@@H]21)c1cccc(C(C)(F)F)c1F (single isomer, unassigned) | 56 nM
COC1(CNc2cc(=O)n(C3CCOCC3)cc2C(=O)N[C@H](C)c2cccc(C(F)(F)F)c2C)CN(C)C1 | 11 nM
COC1(C(=O)N2Cc3nc(C(F)(F)CN)nc(N[C@H](C)c4cccc(C(F)F)c4F)c3C2)CCOCC1 | < 400 nM
CC(=O)NC1(C(=O)N2Cc3nc(Cl)nc(N[C@H](C)c4cccc(C(F)F)c4F)c3C2)CCCCC1 | > 400 nM
C[C@@H](Nc1nc(Cl)nc2c1C[C@@H](N1CCOCC1)CC2)c1cccc(C(F)(F)CO)c1 | < 400 nM
C[C@@H](Nc1nc(Cl)nc2c1CN(C(=O)N1CCNC(C(F)(F)F)C1)C2)c1cccc(C(F)(F)F)c1 (stereo partly shown) | < 400 nM

For each of the compounds below, state Kd.
1. C[C@@H](NC(=O)c1cn([C@H]2CC2(C)C)c(=O)cc1N[C@H]1[C@@H]2CN(C)C[C@@H]21)c1cccc(C(F)F)c1F
2. C[C@@H](Nc1nc(Cl)nc2c1CN(C(=O)c1cnccn1)C2)c1cc(N)cc(C(F)(F)F)c1
3. C[C@@H](Nc1ncnc2c1cc(C1=CCNCC1)n2C)c1cc(N)cc(C(F)(F)F)c1
4. C[C@@H](Nc1nc(Cl)nc2c1CN(C(=O)c1cccc(OC3CCOCC3)n1)C2)c1cc(N)cc(C(F)(F)F)c1
5. Cc1c([C@@H](C)NC(=O)c2cn(C3CCOCC3)c(=O)cc2N[C@H]2CCN(C)C2)cccc1C(F)(F)F
6. CC(=O)N1CC(C)(C(=O)N2Cc3nc(Cl)nc(N[C@H](C)c4cccc(C(F)F)c4F)c3C2)C1

1. 12 nM
2. > 400 nM
3. ≤ 400 nM
4. > 400 nM
5. 16 nM
6. < 400 nM

Need Kd for each of these compounds.
1. C[C@@H](Nc1nc(Cl)nc2c1CN(C(=O)N1CCNCC13COC3)C2)c1cccc(C(F)F)c1F
2. Cc1c([C@@H](C)NC(=O)c2cn(C3CCOCC3)c(=O)cc2NCC2CN(C)C2)cccc1C(F)(F)F
3. CC1CNCCN1C(=O)N1Cc2nc(Cl)nc(N[C@H](C)c3cccc(C(F)F)c3F)c2C1 (stereo partly shown)
4. COC1(C(=O)N2Cc3nc(Cl)nc(N[C@H](C)c4cccc(C(F)(F)F)c4)c3C2)CNC1
5. Cc1c(C(C)Nc2nc(Cl)nc3c2CN(C(=O)N2CCOCC2)C3)cccc1C(F)(F)CO (stereo not shown)

["< 400 nM", "12 nM", "< 400 nM", "< 400 nM", "< 400 nM"]

Give me Kd for each of these compounds, listed below.
1. C[C@@H](NC(=O)c1cn(C2(C(F)F)CC2)c(=O)cc1N[C@@H]1CCN(C)C[C@H]1F)c1cccc(C(F)F)c1F (single isomer, unassigned)
2. C[C@@H](Nc1nc(Cl)nc2c1CN(C(=O)N1CCOc3cccnc31)C2)c1cc(N)cc(C(F)(F)F)c1
3. C[C@@H](Nc1nc(Cl)nc2c1CN(C(=O)N1CCOCC1)C2)c1cccc(C(C)(F)F)c1
4. Cc1c([C@@H](C)NC(=O)c2cn(C3CCOCC3)c(=O)cc2NCCN(C)C)cccc1C(F)(F)F

1. 48 nM
2. < 400 nM
3. < 400 nM
4. 27 nM

Dear colleague, could you please provide Kd for the compounds listed below?
1. C[C@@H](Nc1nc(Cl)nc2c1CN(C(=O)N1CCCC13CCN(C)C3)C2)c1cccc(C(F)F)c1F (stereo partly shown)
2. C[C@@H](Nc1nc(Cl)nc2c1C[C@@H](N1CCOCC1)CC2)c1cc(N)cc(C(F)(F)F)c1 (single isomer, unassigned)
3. C[C@@H](Nc1nc(Cl)nc2c1CN(C(=O)[C@@H]1COCCN1C)C2)c1cccc(C(F)F)c1F

1: < 400 nM; 2: < 400 nM; 3: < 400 nM
